Source listed as PubChem BioAssay.

# assayExplanation: RAM pathway blockade in budding yeast – dse1pr::URA3 reporter, 5-FOA selection, pilot screen (AID 869);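 also: RAM network block rescues cells from 5-FOA so hits raise OD615 growth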
# conditionSet: S. cerevisiae dse1pr::URA3 5-FOA growth, OD615, 2 d; at 10 µM; stronger effect = higher value; strain carries analog-sensitive mutant Cbk1 kinase
True means recorded inhibition is 0.9% or above; False means it is below 0.9%.

Example entries begin here.
[[record]]
compound = "COCCN(CCOC)c1ncnc2c1cnn2-c1ccccc1"
categorylabel = "False"

[[record]]
compound = "CCc1ccc(C2CC(c3cccc(Cl)c3)n3nc(N)nc3N2)cc1 (configuration not stated)"
categorylabel = "True"

[[record]]
compound = "O=C1CCCC2=C1C(c1cn(-c3ccccc3)nc1-c1cccs1)c1c([nH]c(=O)[nH]c1=O)N2 (configuration not stated)"
categorylabel = "False"

[[record]]
compound = "Cc1cc2cc(CNC(=O)c3ccco3)ccc2n1C"
categorylabel = "True"

[[record]]
compound = "O=C(CCNS(=O)(=O)c1cccc2nsnc12)Nc1ccc2c(c1)OCCO2"
categorylabel = "True"


Q: Reported inhibition at or above 0.9%? `c1ccc(N2CCN(Cc3cn4cccnc4n3)CC2)cc1`
Ans: False

Q: Reported inhibition at or above 0.9%? `COc1ccc(CNC(=O)CCS(=O)(=O)c2cccc3nonc23)cc1`
Ans: True

Q: Reported inhibition at or above 0.9%? `CCOC(=O)Cn1c(=O)oc2cc(S(=O)(=O)N3CCCc4ccccc43)ccc21`
Ans: True

Q: Reported inhibition at or above 0.9%? `CCn1c(C(=O)N2CCC(C(=O)N3CCN(c4ccccn4)CC3)CC2)cc2sccc21`
Ans: True

Q: Reported inhibition at or above 0.9%? `COc1ccc(C(=O)CCC(=O)O)cc1`
Ans: True

Q: Reported inhibition at or above 0.9%? `COc1ccc(S(=O)(=O)N(CC(=O)N2CCN(c3ccccc3OC)CC2)c2ccccc2)cc1`
Ans: False

Q: Reported inhibition at or above 0.9%? `COc1cc(NC(=O)c2ccc(S(=O)(=O)N(C)C)cc2)cc(OC)c1OC`
Ans: True
